// data source = ChEMBL document CHEMBL1142961

- targetUnderTest: Aminopeptidase N (Sus scrofa) (UniProt P15145)
- Sequence (P15145 whole entry): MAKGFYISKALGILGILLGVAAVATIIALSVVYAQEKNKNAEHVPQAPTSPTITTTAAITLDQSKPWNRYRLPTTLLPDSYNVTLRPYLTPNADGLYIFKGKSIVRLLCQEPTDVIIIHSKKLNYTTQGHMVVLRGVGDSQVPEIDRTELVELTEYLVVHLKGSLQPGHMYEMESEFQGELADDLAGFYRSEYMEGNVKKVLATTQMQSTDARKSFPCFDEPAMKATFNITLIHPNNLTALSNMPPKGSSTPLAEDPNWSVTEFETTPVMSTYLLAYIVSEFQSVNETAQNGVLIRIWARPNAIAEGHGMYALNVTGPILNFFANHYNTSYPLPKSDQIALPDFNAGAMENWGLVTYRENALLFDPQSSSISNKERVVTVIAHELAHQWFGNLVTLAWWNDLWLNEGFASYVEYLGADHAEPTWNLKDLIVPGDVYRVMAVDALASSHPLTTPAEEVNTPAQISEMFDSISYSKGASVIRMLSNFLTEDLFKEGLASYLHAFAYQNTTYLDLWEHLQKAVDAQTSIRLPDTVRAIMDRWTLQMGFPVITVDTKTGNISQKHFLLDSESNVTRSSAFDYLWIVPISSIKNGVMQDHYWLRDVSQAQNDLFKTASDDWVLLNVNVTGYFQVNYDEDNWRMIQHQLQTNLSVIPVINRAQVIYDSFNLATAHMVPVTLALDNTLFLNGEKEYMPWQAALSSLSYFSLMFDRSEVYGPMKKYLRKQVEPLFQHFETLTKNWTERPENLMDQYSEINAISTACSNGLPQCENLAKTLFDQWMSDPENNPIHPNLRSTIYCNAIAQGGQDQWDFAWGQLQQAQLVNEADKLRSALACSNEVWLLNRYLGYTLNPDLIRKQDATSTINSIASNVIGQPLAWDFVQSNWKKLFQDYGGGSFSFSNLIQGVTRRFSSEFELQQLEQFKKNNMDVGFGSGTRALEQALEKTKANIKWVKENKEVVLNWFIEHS
- assay: Inhibition of pig kidney microsomal APN at 10 uM
measurementType: inhibition (%)
Answers are plain numbers, in %.

Worked examples follow.
>>> df
                                   compound  readoutvalue
0  O=C(NO)C(Cc1cccc(Oc2ccccc2)c1)C(=O)NCCCCc1ccccc1 (stereo unspecified)            84
1  O=C(CC(=O)N1CCC(n2c(=O)[nH]c3ccccc32)CC1)NO            19
2  CC(C)CC(C(=O)NO)C(=O)N(CCCCc1ccccc1)CC(C)C (stereo unspecified)            60
3  NC(C(=O)NO)C(=O)N(CCc1ccccc1)Cc1ccccc1 (stereo unspecified)            34
4     O=C(CC(=O)N1CCC2(CCNc3ccccc3O2)CC1)NO            27
5  CC(C)CC(C(=O)NO)C(=O)N1CCN(Cc2ccc3c(c2)OCO3)CC1 (stereo unspecified)            19
6  O=C(NO)C(Cc1ccccc1)C(=O)NCCNc1cccc2ccccc12 (stereo unspecified)            76
7  NC(C(=O)NO)C(=O)NCCNc1cccc2ccccc12 (stereo unspecified)            16

Below are 4 compounds. Give each one its inhibition.
1. O=C(NO)C(Cc1cccc(Oc2ccccc2)c1)C(=O)N1CCC(Cc2ccccc2)CC1 (stereo unspecified)
2. O=C(NO)C(Cc1ccccc1)C(=O)NCc1ccc(Cl)cc1 (stereo unspecified)
3. O=C(NO)C(Cc1cccc(Oc2ccccc2)c1)C(=O)NCc1ccc(C(F)(F)F)cc1 (stereo unspecified)
4. Cc1ccccc1CNC(=O)C(Cc1cccc(Oc2ccccc2)c1)C(=O)NO (stereo unspecified)

1: 65; 2: 80; 3: 84; 4: 86

====

For each of the molecules below, state its inhibition.
- targetUnderTest: Aminopeptidase N (Plasmodium falciparum FcB1/Columbia) (UniProt O96935)
- Sequence (O96935 whole entry): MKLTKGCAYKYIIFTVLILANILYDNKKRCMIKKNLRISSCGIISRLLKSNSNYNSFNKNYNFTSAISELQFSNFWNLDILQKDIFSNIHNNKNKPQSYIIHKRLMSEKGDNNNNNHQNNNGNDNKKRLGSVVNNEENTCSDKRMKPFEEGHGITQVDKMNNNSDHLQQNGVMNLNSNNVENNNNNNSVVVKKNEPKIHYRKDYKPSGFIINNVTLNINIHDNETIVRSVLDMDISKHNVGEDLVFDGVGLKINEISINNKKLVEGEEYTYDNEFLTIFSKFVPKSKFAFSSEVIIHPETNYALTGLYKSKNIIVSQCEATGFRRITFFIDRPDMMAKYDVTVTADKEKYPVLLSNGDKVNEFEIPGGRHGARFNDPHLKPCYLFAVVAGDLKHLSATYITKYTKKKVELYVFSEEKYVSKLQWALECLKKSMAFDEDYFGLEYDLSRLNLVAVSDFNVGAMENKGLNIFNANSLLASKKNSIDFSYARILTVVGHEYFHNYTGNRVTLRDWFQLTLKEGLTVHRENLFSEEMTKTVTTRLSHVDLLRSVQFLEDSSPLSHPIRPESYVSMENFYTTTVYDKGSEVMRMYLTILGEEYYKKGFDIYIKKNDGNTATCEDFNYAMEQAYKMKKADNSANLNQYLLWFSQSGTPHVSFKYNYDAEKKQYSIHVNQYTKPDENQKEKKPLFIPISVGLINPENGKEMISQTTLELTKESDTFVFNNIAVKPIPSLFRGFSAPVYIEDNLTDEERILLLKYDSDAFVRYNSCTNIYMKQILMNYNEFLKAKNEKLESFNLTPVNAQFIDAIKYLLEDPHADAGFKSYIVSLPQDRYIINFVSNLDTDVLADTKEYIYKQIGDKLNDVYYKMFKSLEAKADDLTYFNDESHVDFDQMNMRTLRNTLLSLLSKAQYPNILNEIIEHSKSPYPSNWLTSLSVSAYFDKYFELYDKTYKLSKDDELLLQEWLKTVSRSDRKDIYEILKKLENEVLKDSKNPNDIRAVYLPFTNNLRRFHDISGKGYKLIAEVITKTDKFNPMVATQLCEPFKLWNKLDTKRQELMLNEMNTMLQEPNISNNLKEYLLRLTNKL
- assay: Inhibition of Plasmodium falciparum FcB1 M1 aminopeptidase at 10 uM

Examples with their reported inhibition follow.
>>> print(df.to_string())
                                   molecule  readoutvalue
0  CC(C)CC(C(=O)NO)C(=O)NC1Cc2ccccc2C1 (configuration not stated)           61%
1  NC(C(=O)NO)C(=O)NCCCc1ccccc1 (configuration not stated)           64%
2  O=C(NO)C(Cc1ccccc1)C(=O)NCc1cccc(Oc2ccccc2)c1 (configuration not stated)           87%
3  O=C(NO)C(Cc1ccccc1)C(=O)NCc1ccc(F)cc1 (configuration not stated)           91%
4  CC(C)CC(C(=O)NO)C(=O)N1CCC2(CCNc3ccccc3O2)CC1 (configuration not stated)           16%
5  CN(CCCCc1ccccc1)C(=O)C(Cc1cccc(Oc2ccccc2)c1)C(=O)NO (configuration not stated)           80%
6  CC(C)CC(C(=O)NO)C(=O)NCCCc1ccccc1 (configuration not stated)           98%
7  Cc1ccccc1CNC(=O)C(CC(C)C)C(=O)NO (configuration not stated)           88%

Can you give me inhibition for all of these, one by one?
1. CN(CCCNC(=O)C(Cc1cccc(Oc2ccccc2)c1)C(=O)NO)c1ccccc1 (configuration not stated)
2. CC(C)CC(C(=O)NO)C(=O)NCCCN(C)c1ccccc1 (configuration not stated)
3. O=C(CC(=O)N(CCc1ccccc1)Cc1ccccc1)NO
4. CN(CCCNC(=O)CC(=O)NO)c1ccccc1

["77%", "66%", "5%", "22%"]
